// provenance: patent US5747535A

assay: Test 2: Pharmacokinetic test in rats; type: in vivo, rat; conditions: rat, blood, po, 15 mg/kg, Rat-3, oral 15 mg/kg, 180 min; read-out: Blood concentration
endpointLabel: concentration at 3 h (ng/mL)
Report only the number, with the unit ng/mL understood.

Note to self: concentration at 3 h recorded for `CN(C(=O)[C@H](Cc1ccc(C(=N)NN)cc1)NS(=O)(=O)c1ccc2ccccc2c1)C1CCCC1` was 64

###

assay: Test 2: Pharmacokinetic test in dogs; format: in vivo, dog; settings: dog, blood, iv, 10 mg/kg, dogs, i.v. 10 mg/kg, 300 min; read-out: Blood concentration, Average(+error)
endpointLabel: concentration at 5 h (ng/mL)
Report only the number, with the unit ng/mL understood.

Note to self: concentration at 5 h recorded for `CN(C(=O)[C@H](Cc1ccc(C(=N)NN)cc1)NS(=O)(=O)c1ccc2ccccc2c1)C1CCCC1` was 211

###

test: Test 2: Pharmacokinetic test in dogs; assay type: in vivo, dog; conditions: dog, blood, iv, 10 mg/kg, dogs, i.v. 10 mg/kg, 60 min; read-out: Blood concentration, Average(+error)
endpointLabel: concentration at 1 h (ng/mL)
Report only the number, with the unit ng/mL understood.

Note to self: concentration at 1 h recorded for CN(C(=O)[C@H](Cc1ccc(C(=N)NN)cc1)NS(=O)(=O)c1ccc2ccccc2c1)C1CCCC1 [Example 1] was 1080

###

assay: Test 2: Pharmacokinetic test in rats; format: in vivo, rat; settings: rat, blood, po, 15 mg/kg, rats, oral 15 mg/kg, 90 min; read-out: Blood concentration, Average(+error)
endpointLabel: concentration at 1.5 h
Express your answer as a number followed by its unit.

Note to self: concentration at 1.5 h recorded for `CN(C(=O)[C@H](Cc1ccc(C(=N)NN)cc1)NS(=O)(=O)c1ccc2ccccc2c1)C1CCCC1` was 124 ng/mL

###

assay: Test 2: Pharmacokinetic test in rats; assay type: in vivo, rat; conditions: rat, blood, po, 15 mg/kg, Rat-2, oral 15 mg/kg, 180 min; read-out: Blood concentration
endpointLabel: concentration at 3 h (ng/mL)
Report only the number, with the unit ng/mL understood.

Note to self: concentration at 3 h recorded for CN(C(=O)[C@H](Cc1ccc(C(=N)NN)cc1)NS(=O)(=O)c1ccc2ccccc2c1)C1CCCC1 [Example 1] was 238

###

assay: Test 2: Pharmacokinetic test in dogs; type: in vivo, dog; conditions: dog, blood; dogs; read-out: Elimination Half-life, Average + (error)
endpointLabel: half-life (h)
Report only the number, with the unit h understood.

Note to self: half-life recorded for CN(C(=O)[C@H](Cc1ccc(C(=N)NN)cc1)NS(=O)(=O)c1ccc2ccccc2c1)C1CCCC1 [Example 1] was 1.63

###

Experiment: Test 2: Pharmacokinetic test in dogs
Assay type: in vivo, dog
Conditions: dog, blood, po, 10 mg/kg, dogs, oral 10 mg/kg, 30 min; read-out: Blood concentration, Average(+error)
Procedure: Male rats and dogs were fasted for 24 hours and used as the experimental animals. […] Bloods were collected from the animals at given time intervals and then immediately mixed with methanol and zinc sulfate. Finally, the upper layer of the mixture was quantitatively analyzed at ultraviolet wavelength of 231 nm to measure the drug concentration in blood by HPLC.
endpointLabel: concentration at 0.5 h
Express your answer as a number followed by its unit.

Note to self: concentration at 0.5 h recorded for `CN(C(=O)[C@H](Cc1ccc(C(=N)NN)cc1)NS(=O)(=O)c1ccc2ccccc2c1)C1CCCC1` was 1020 ng/mL

###

experiment: Test 2: Pharmacokinetic test in dogs; assay type: in vivo, dog; details: dog, blood, po, 10 mg/kg, Dog-1, oral 10 mg/kg, 60 min; read-out: Blood concentration
endpointLabel: concentration at 1 h (µg/mL)
Report only the number, with the unit µg/mL understood.

Note to self: concentration at 1 h recorded for `CN(C(=O)[C@H](Cc1ccc(C(=N)NN)cc1)NS(=O)(=O)c1ccc2ccccc2c1)C1CCCC1` was 2.21

###

test: Test 2: Pharmacokinetic test in dogs; format: in vivo, dog; conditions: dog, blood, po, 10 mg/kg, dogs, oral 10 mg/kg, 300 min; read-out: Blood concentration, Average(+error)
endpointLabel: concentration at 5 h (ng/mL)
Report only the number, with the unit ng/mL understood.

Note to self: concentration at 5 h recorded for CN(C(=O)[C@H](Cc1ccc(C(=N)NN)cc1)NS(=O)(=O)c1ccc2ccccc2c1)C1CCCC1 [Example 1] was 136

###

Listed here are compounds together with their documented Ki.
molecular target: bovine thrombin (Bos taurus, UniProt P00735); test: biochemical;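 also: bovine thrombin cleaving the chromogenic substrate Chromozym TH, with para-nitroaniline release tracked as absorbance change over time to give initial rates, in Tris buffer at pH 7.8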
Report only the number, with the unit nM understood.

Here's what some known entries look like.
CCOC(=O)N1CCN(C(=O)[C@H](Cc2ccc(C(=N)NN)cc2)NS(=O)(=O)c2ccc3ccccc3c2)CC1 | 3300
N=C(NN)c1ccc(C[C@H](NS(=O)(=O)c2ccc3ccccc3c2)C(=O)N2CCN(c3cccc(C(F)(F)F)c3)CC2)cc1 | 10000
COC(=O)[C@@H](C)N(C)C(=O)[C@H](Cc1ccc(C(=N)NN)cc1)NS(=O)(=O)c1ccc2ccccc2c1 | 89
COC(=O)CCN(C)C(=O)[C@H](Cc1ccc(C(=N)NN)cc1)NS(=O)(=O)c1ccc2ccccc2c1 | 35
CN(C(=O)[C@H](Cc1ccc(C(=N)NN)cc1)NC(=O)COc1ccc2ccccc2c1)C1CCCC1 | 20100
N=C(NN)c1ccc(C[C@H](NS(=O)(=O)c2ccc3ccccc3c2)C(=O)N2CCCC[C@@H]2C(=O)O)cc1 | 406

Note to self: Ki recorded for `COC(=O)[C@H]1CCCCN1C(=O)[C@H](Cc1ccc(C(=N)NN)cc1)NS(=O)(=O)c1ccc2ccccc2c1` was 13

Note to self: Ki recorded for `CCN(C(=O)[C@H](Cc1ccc(C(=N)NN)cc1)NS(=O)(=O)c1ccc2ccccc2c1)C1CCCC1` was 4.35

Note to self: Ki recorded for `COc1cc(C)c(S(=O)(=O)N[C@@H](Cc2ccc(C(=N)NN)cc2)C(=O)N(C)C2CCCC2)c(C)c1C` was 227

Note to self: Ki recorded for `CC(=O)N1CCN(C(=O)[C@H](Cc2ccc(C(=N)NN)cc2)NS(=O)(=O)c2ccc3ccccc3c2)CC1` was 280

Note to self: Ki recorded for `N=C(NN)c1ccc(C[C@H](NS(=O)(=O)c2ccc3ccccc3c2)C(=O)N(CCOCc2ccccc2)C2CCCC2)cc1` was 345

Note to self: Ki recorded for `CNC(=N)c1ccc(C[C@H](NS(=O)(=O)c2ccc3ccccc3c2)C(=O)N(C)C2CCCC2)cc1` was 13.8

Note to self: Ki recorded for `CN(C)C(=O)[C@H](Cc1ccc(C(=N)NN)cc1)NS(=O)(=O)c1ccc2ccccc2c1` was 216

Note to self: Ki recorded for CCOC(=O)C1CCCC1N(C)C(=O)[C@H](Cc1ccc(C(=N)NN)cc1)NS(=O)(=O)c1ccc2ccccc2c1 (stereo partly shown) was 346

Note to self: Ki recorded for `CNC(=N)c1ccc(C[C@H](NS(=O)(=O)c2cccc3c(N(C)C)cccc23)C(=O)N(C)C2CCCC2)cc1` was 25

Note to self: Ki recorded for `CN(C(=O)[C@H](Cc1ccc(C(=N)NN)cc1)NS(=O)(=O)c1cccc2ccccc12)C1CCCC1` was 17

Note to self: Ki recorded for CN(C(=O)[C@H](Cc1ccc(C(=N)NN)cc1)NS(=O)(=O)c1ccc2ccccc2c1)C1CCCC1C(=O)O (stereo partly shown) was 880

Note to self: Ki recorded for `CN(C(=O)[C@H](Cc1ccc(C(=N)NN)cc1)NS(=O)(=O)c1ccc2ccccc2c1)C1CCCC1` was 3.8

Note to self: Ki recorded for `CS(=O)(=O)N1CCN(C(=O)[C@H](Cc2ccc(C(=N)NN)cc2)NS(=O)(=O)c2ccc3ccccc3c2)CC1` was 11

Note to self: Ki recorded for `CN(C)c1cccc2c(S(=O)(=O)N[C@@H](Cc3ccc(C(=N)NN)cc3)C(=O)N(C)C3CCCC3)cccc12` was 11

###

experiment: Test 2: Pharmacokinetic test in dogs; format: in vivo, dog; conditions: dog, blood, iv, 10 mg/kg, dogs, i.v. 10 mg/kg, 2 min; read-out: Blood concentration, Average(+error)
endpointLabel: concentration at 2 min (ng/mL)
Report only the number, with the unit ng/mL understood.

Note to self: concentration at 2 min recorded for `CN(C(=O)[C@H](Cc1ccc(C(=N)NN)cc1)NS(=O)(=O)c1ccc2ccccc2c1)C1CCCC1` was 32900

###

test: Test 2: Pharmacokinetic test in rats; format: in vivo, rat; settings: rat, blood, iv, 10 mg/kg, Rat-1, i.v. 10 mg/kg, 1 min; read-out: Blood concentration
endpointLabel: concentration at 1 min (ng/mL)
Report only the number, with the unit ng/mL understood.

Note to self: concentration at 1 min recorded for `CN(C(=O)[C@H](Cc1ccc(C(=N)NN)cc1)NS(=O)(=O)c1ccc2ccccc2c1)C1CCCC1` was 31500

###

assay: Test 2: Pharmacokinetic test in rats; assay type: in vivo, rat; details: rat, blood, po, 15 mg/kg, rats, oral 15 mg/kg, 45 min; read-out: Blood concentration, Average(+error)
endpointLabel: concentration at 0.75 h (ng/mL)
Report only the number, with the unit ng/mL understood.

Note to self: concentration at 0.75 h recorded for `CN(C(=O)[C@H](Cc1ccc(C(=N)NN)cc1)NS(=O)(=O)c1ccc2ccccc2c1)C1CCCC1` was 121
